Biological target: Epidermal growth factor receptor (Homo sapiens)
Sequence (P00533 whole entry): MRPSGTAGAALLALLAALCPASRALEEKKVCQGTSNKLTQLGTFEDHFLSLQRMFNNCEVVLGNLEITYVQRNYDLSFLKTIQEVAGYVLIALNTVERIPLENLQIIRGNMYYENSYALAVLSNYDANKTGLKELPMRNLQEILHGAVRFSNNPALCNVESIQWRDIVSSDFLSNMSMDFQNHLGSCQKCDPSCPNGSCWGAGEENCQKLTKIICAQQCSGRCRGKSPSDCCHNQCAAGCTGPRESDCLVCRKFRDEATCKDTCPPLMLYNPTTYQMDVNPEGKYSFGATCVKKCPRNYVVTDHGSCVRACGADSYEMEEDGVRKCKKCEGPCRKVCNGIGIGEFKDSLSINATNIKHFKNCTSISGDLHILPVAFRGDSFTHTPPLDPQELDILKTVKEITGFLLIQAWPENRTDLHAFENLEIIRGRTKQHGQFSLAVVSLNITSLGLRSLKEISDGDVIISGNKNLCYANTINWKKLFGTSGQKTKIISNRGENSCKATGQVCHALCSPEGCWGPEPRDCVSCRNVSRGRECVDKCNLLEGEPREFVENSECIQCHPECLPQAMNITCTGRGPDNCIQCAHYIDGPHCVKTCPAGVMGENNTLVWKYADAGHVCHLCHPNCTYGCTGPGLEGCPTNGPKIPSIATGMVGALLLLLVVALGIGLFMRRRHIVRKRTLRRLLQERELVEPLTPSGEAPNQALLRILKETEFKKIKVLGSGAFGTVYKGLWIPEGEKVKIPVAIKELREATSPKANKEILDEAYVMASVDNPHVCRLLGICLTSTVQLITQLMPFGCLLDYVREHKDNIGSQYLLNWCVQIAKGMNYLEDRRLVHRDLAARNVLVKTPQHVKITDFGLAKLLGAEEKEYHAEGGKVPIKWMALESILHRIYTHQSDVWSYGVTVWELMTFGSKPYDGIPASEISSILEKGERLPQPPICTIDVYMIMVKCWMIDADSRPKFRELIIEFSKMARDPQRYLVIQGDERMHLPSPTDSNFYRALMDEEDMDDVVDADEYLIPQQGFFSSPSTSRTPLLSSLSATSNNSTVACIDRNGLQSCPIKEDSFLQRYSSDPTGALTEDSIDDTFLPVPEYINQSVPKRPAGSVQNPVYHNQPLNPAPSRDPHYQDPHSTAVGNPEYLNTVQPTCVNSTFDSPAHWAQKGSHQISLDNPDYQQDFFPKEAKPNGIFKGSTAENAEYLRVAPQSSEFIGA
Assay: Inhibition of epidermal growth factor receptor (EGFR)
pIC50: −log10 of the molar value.
measuredMetric: pIC50

> print(dat)
                          structureassmiles  measuredresult
1  CCOc1ccc2sc(SCc3cc(/C=C(\C#N)C(N)=O)cc(OC)c3O)nc2c1            3.78
